# experimental-details: qHTS of pediatric cancer cell lines to identify multiple opportunities for drug repurposing: Primary screen for OHS-50 cells (AID 1347103); note: nearly all actives have a fitted effect of over 40% in size
# cond: OHS-50 osteosarcoma viability, CellTiter-Glo luminescence, 48 h; series mostly up to 57.3 µM
Inconclusive results are not listed. The source made the active and inactive calls. Calls come from the whole dose curve; as a rule, active = well fitted cell-killing curve with a large enough effect; inconclusive = small, poorly fitted or top-dose-only effect; inactive = no such curve, though single readings can be large or run the other way.
Possible outcomes: yes (active), no (inactive)

{"columns": ["compound", "label"],
 "data": [
  ["CNCC(O)c1ccc(O)cc1 (configuration not stated)", "no"],
  ["NN=C(N)N", "no"],
  ["O=C1NCN(c2ccccc2)C12CCN(CC1COc3ccccc3O1)CC2 (configuration not stated)", "no"],
  ["NCC1(CC(=O)O)CCCCC1", "no"],
  ["COc1ccc(C(CN(C)C)C2(O)CCCCC2)cc1 (configuration not stated)", "no"],
  ["Cc1cccc(C)c1NC(=O)CN1CCCC1=O", "no"],
  ["CNC(=O)N1N=C(c2ccc(N)cc2)c2cc3c(cc2CC1C)OCO3 (configuration not stated)", "yes"],
  ["CN1C(=S)CN=C(c2ccccc2)c2cc(Cl)ccc21", "no"],
  ["CC(C)CC(N(C)C)C1(c2ccc(Cl)cc2)CCC1 (configuration not stated)", "no"],
  ["CC(C)(C)NCC(O)c1cc(Cl)c(N)c(Cl)c1 (configuration not stated)", "no"],
  ["COc1ccccc1N1CCNCC1", "no"],
  ["CCN(CC)C(=O)N[C@@H]1C=C2c3cccc4[nH]cc(c34)C[C@@H]2N(C)C1", "no"],
  ["CCCN1CCC[C@@H]2Cc3nc(N)ncc3C[C@H]21", "no"],
  ["CCC(=O)C(CC(C)N(C)C)(c1ccccc1)c1ccccc1 (configuration not stated)", "yes"],
  ["CC[C@@H](CO)NC(=O)[C@@H]1C=C2c3cccc4c3c(cn4C)C[C@H]2N(C)C1", "no"],
  ["CCOP(=S)(OCC)Oc1cc(C)nc(C(C)C)n1", "no"],
  ["CC(C)NCC(O)c1ccccc1Cl (configuration not stated)", "no"],
  ["O=P1(NCCCl)OCCCN1CCCl (configuration not stated)", "no"],
  ["Cc1sc2c(c1C)C(c1ccc(Cl)cc1)=N[C@@H](CC(=O)OC(C)(C)C)c1nnc(C)n1-2", "yes"],
  ["O=[N+]([O-])c1cc([As](=O)(O)O)ccc1O", "no"],
  ["O=C(NC(O)C(Cl)(Cl)Cl)NC(O)C(Cl)(Cl)Cl (configuration not stated)", "no"],
  ["CN(C)CCc1ccc(O)cc1", "no"],
  ["NCC(O)c1ccc(O)cc1 (configuration not stated)", "no"],
  ["Cc1cccc(C)c1NC1=NCCCS1", "no"],
  ["CC1NCCOC1c1ccccc1 (configuration not stated)", "no"],
  ["Oc1cc(Cl)ccc1Oc1ccc(Cl)cc1Cl", "yes"],
  ["O=c1oc2ccccc2c(O)c1C(CC(O)c1ccc(-c2ccc(Br)cc2)cc1)c1ccccc1 (configuration not stated)", "no"]
]}
